Origin of values: patent US20070155730A1

Biological target: histone deacetylase (HDAC)
Test: Inhibition of Histone Deacetylase Enzymatic Activity
Conditions: substrate Boc-Lys(Ac)-AMC, Fluor-de-Lys developer, 37° C., 20 min; against one or more of HDAC-1 to HDAC-11, SirT1 to SirT7 (isoform not given); read-out: HDAC Inhibitory Activity (IC50)
Method: The following protocol is used to assay the compounds of the invention. In the assay, the buffer used is 25 mM HEPES, pH 8.0, 137 mM NaCl, 2.7 mM KCl, 1 mM MgCl2 and the substrate is Boc-Lys(Ac)-AMC in a 50 mM stock solution in DMSO. The enzyme stock solution is 4.08 μg/mL in buffer. The compounds are pre-incubated (2 μl in DMSO diluted to 13 μl in buffer for transfer to assay plate) with enzyme (20 μl of 4.08 μg/mL) for 10 min at room temperature (35 μl pre-incubation volume). […]
pIC50: −log10 of the molar value.
pIC50 by entry:
metric name: pIC50

| molecule | metric name | result |
| --- | --- | --- |
| O=C(NO)c1ccc(CN2C(=O)CNC(=O)[C@H]2Cc2ccccc2)cc1 [Compound 136b] | pIC50 | > 7.30 |
| O=C(CCOC1C[C@@H](C(=O)Nc2cccc3cccnc23)N(C(=O)OCc2ccccc2)C1)NO (stereo in doubt) [Compound 112d] | pIC50 | 6.30 to 7.30 |
| O=C(NO)c1ccc(CN2C(=O)CNC(=O)[C@H]2Cc2c[nH]c3ccccc23)cc1 [Compound 136a] | pIC50 | > 7.30 |
| O=C(NO)c1ccc(CN2c3ccccc3NC(=O)[C@H]2Cc2ccc3ccccc3c2)cc1 | pIC50 | > 7.30 |
